B1: MYBL2 (parent)
chain: IAKHLKGRLGKQCRERWHNHLNPE

variants of: B1; assay: protein stability index of a GFP-peptide fusion (GPS, HEK-293T) (PSI 1-6); higher = more stable; conditions: c terminus: a fixed tail appended;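 also: lentivirally expressed fusions sorted by FACS into six bins by GFP to DsRed ratio, PSI derived from sequencing read proportions per bin multiplied by bin number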
Consider the following variants and their measured protein stability index readings.
Number only, no unit.

Completed entries (count: 3):
IAKHLKGGLGKQCRERWHNHLNPE = 1.81
IAKHLKGRLGKQCCERWHNHLNPE = 1.77
IAKHLKGRLGKQCRERWHNHSNPE = 1.97

Field protein stability index (entry IAKHLKGRLGKQCRTRWHNHLNPE ) reads 2.5

Field protein stability index (entry IAKHLKGRLGKQCRERWHNYLNPE ) reads 1.62

Field protein stability index (entry IAKHLKGRLGKQCRERWHNHLNPH ) reads 2

Field protein stability index (entry IAKHLKGRLWKQCRERWHNHLNPE ) reads 2.56

Field protein stability index (entry IAKHLTGRLGKQCRERWHNHLNPE ) reads 2.21

Field protein stability index (entry IAIHLKGRLGKQCRERWHNHLNPE ) reads 1.51
